Measure Name: Human plasma stability T1/2

Solved cases (3 shown):
O=C1CCC(N2Cc3ccc(S(=O)(=O)n4cnc(F)c4)cc3C2=O)C(=O)N1 (stereo not shown)
19 min
Cc1cnn(S(=O)(=O)c2ccc3c(c2)C(=O)N(C2CCC(=O)NC2=O)C3)c1 (stereo not shown)
> 289 min
O=C1CCC(N2Cc3ccc(S(=O)(=O)n4ccc(C(F)(F)F)n4)cc3C2=O)C(=O)N1 (stereo not shown)
14 min

Query molecule follows.
For the molecule shown here, O=C1CCC(N2Cc3ccc(S(=O)(=O)n4cnc(C(F)(F)F)c4)cc3C2=O)C(=O)N1 (stereo not shown) , give the reported Human plasma stability T1/2. 6.5 min

* * *

Exercise: for every item that follows, state its recorded pIC50.
System: NanoLuc-CRBN (Homo sapiens)
Construct: expressed in transfected cells; host or cells: HEK293T, lentiviral transduction, puromycin selection
Sequence (Q96SW2 whole entry): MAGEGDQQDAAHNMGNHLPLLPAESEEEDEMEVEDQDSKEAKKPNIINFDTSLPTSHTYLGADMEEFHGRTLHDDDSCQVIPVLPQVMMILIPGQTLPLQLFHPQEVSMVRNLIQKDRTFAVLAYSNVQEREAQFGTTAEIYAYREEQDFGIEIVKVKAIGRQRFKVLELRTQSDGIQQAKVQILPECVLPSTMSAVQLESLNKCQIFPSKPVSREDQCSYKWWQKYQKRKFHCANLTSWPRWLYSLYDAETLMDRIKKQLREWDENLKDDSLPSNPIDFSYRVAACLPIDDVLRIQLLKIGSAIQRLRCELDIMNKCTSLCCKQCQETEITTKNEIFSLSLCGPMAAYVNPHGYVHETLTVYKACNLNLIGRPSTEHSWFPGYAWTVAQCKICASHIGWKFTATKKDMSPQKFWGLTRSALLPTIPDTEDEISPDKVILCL
Assay Method Text: Cellular CRBN NanoBret Engagement Assay
Format: cell-based
Particulars: HEK293T cells stably expressing NanoLuc-CRBN, 250 nM BODIPY-lenalidomide tracer, 2 h incubation; read-out: CRBN NanoBRET IC50
Method: HEK293T cells were transduced with lentivirus and put under puromycin selection (5 μg/mL) for two weeks to produce a cell line stably expressing CRBN with N-terminally fused NanoLuc® luciferase (NanoLuc-CRBN). […] The density of this cell suspension was determined by diluting the cells 1:1 with trypan blue, then counting using a Countess II (Thermo Fischer Scientific) and then diluted to the required volume at 2×10^5 viable cells/mL in Opti-MEM™ I (Gibco, Life Technologies). […]
Answers are plain numbers, as −log10 of the molar value.

Consider the reported pIC50 for these molecules:
C=CS(=O)(=O)c1ccc2c(c1)C(=O)N(C1CCC(=O)NC1=O)C2 (stereo not drawn)
4.90
Nc1cn(S(=O)(=O)c2ccc3c(c2)C(=O)N(C2CCC(=O)NC2=O)C3)c(=O)[nH]c1=O (stereo not drawn)
5.06

As a next step, examine the molecule that follows.
I have this molecule here, C=CS(=O)(=O)Nc1ccc2c(c1)C(=O)N(C1CCC(=O)NC1=O)C2 (stereo not drawn) , and I need its recorded pIC50. 6.27

* * *

Assay Method Text: Kinetic solubility
Format: physicochemical
Particulars: kinetic from dmso stock
Measure Name: solubility kinetic
Write the quantity with the unit trailing the number.

# query: solubility kinetic of entry O=C1CCC(N2Cc3ccc(OS(=O)(=O)F)cc3C2=O)C(=O)N1 (stereo not shown) 119 µM

* * *

Field: Human plasma stability T1/2. Provide a value for each of the molecules that follow.
Answers are plain numbers, in h.

These solved cases illustrate the format of a correct answer.
O=C1CCC(N2Cc3ccc(S(=O)(=O)n4cc(F)cn4)cc3C2=O)C(=O)N1 (centres unmarked)
1.53
O=C1CCC(N2Cc3ccc(S(=O)(=O)n4cc(C(F)(F)F)cn4)cc3C2=O)C(=O)N1 (centres unmarked)
0.167
O=C1CCC(N2Cc3ccc(S(=O)(=O)n4ccc(=O)[nH]c4=O)cc3C2=O)C(=O)N1 (centres unmarked)
2.72

Record Human plasma stability T1/2 per entry; entries follow.
1. Cc1cn(S(=O)(=O)c2ccc3c(c2)C(=O)N(C2CCC(=O)NC2=O)C3)c(=O)[nH]c1=O (centres unmarked)
2. O=C1CCC(N2Cc3ccc(S(=O)(=O)n4ccc(F)n4)cc3C2=O)C(=O)N1 (centres unmarked)

3.98
1.92

* * *

Assay Method Text: Caco-2 permeability
Type: in vitro ADME
Particulars: human
Measure Name: Papp (×10⁻⁶ cm/s)
One number for each entry, in ×10⁻⁶ cm/s.

Need Papp, item O=C1CCC(N2Cc3ccc(OS(=O)(=O)F)cc3C2=O)C(=O)N1 (stereo not shown) 29.5
